- assay_target: T1, subtilisin Carlsberg (Bacillus licheniformis, UniProt P00780)
- T1 chain: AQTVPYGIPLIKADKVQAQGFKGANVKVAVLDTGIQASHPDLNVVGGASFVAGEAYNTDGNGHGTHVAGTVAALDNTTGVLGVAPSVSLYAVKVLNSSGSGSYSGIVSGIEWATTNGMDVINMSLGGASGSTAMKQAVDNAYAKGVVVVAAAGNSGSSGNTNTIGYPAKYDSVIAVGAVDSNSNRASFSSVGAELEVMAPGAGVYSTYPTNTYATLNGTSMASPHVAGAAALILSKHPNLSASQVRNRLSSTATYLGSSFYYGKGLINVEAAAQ
- procedure_text: ITC
observation_type: pKd
One number for each entry, as −log10 of the molar value.

I have this binder here, VCTEEY [VCTEEY peptide (CrSPI-1 domain 2 RSL)] , and I need its recorded pKd. 3.30
